- tgt: UniProt P30291
- test-description: Wee1 protein degradation assay (HiBiT assay)
- Type: cell-based
- condition-summary: engineered HT-1080 cells, 20 hours
reported-metric: DC50

Answered cases to consult:
C=CCn1c(=O)c2cnc(Nc3ccc(N4CCC(CN5CCC(c6ccc7c(c6)n(C)c(=O)n7C6CCC(=O)NC6=O)CC5)CC4)cc3)nc2n1-c1cccc(C(C)(C)O)n1 (centres unmarked)	< 100 nM
C=CCn1c(=O)c2cnc(Nc3ccc(N4CCN(CC5CCN(c6ccc(NC7CCC(=O)NC7=O)cc6F)CC5)CC4)c(C)c3)nc2n1-c1ccc2c(n1)[C@@](C)(O)CC2 (some centres unmarked)	< 100 nM
C=CCn1c(=O)c2cnc(Nc3ccc(N4CCN(CC5CCN(c6ccc(NC7CCC(=O)NC7=O)cc6Cl)CC5)CC4)cc3)nc2n1-c1ccc2c(n1)[C@@](O)(CC)CC2 (some centres unmarked)	< 100 nM
C=CCn1c(=O)c2cnc(Nc3ccc(N4CCN(CC5CCN(c6ncc(NC7CCC(=O)NC7=O)cc6Cl)CC5)CC4)cc3)nc2n1-c1ccc2c(n1)[C@@](O)(CC)CC2 (some centres unmarked)	< 100 nM

As a next step, examine the molecule that follows.
Query: Param item = C=CCn1c(=O)c2cnc(Nc3ccc(N4CCN(CC5CCN(c6cccc7c(N8CCC(=O)NC8=O)nn(C)c67)CC5)CC4)cc3)nc2n1-c1cccc(C(C)(C)O)n1 ; retrieve measured DC50.
Result: < 100 nM

====

- tgt: HiBiT tagged Wee1 (Homo sapiens, UniProt P30291)
- Sequence (P30291 whole entry): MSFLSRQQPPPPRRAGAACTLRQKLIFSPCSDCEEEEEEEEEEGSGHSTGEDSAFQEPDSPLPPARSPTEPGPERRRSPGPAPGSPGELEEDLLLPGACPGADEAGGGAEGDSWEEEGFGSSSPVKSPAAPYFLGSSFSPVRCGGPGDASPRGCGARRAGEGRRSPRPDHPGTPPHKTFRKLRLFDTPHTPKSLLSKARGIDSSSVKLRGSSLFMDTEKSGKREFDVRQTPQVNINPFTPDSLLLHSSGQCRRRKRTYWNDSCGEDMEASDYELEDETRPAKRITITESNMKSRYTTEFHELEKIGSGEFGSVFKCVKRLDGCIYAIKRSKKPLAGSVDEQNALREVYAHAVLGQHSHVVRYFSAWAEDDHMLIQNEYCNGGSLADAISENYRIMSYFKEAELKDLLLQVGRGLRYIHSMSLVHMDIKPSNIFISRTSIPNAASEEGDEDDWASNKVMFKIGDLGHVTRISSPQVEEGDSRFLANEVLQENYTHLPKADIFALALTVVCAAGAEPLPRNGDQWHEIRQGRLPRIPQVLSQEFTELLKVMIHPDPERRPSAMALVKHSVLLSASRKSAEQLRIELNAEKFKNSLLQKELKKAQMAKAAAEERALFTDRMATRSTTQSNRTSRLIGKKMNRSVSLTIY
- test-description: Wee1 protein degradation assay (HiBiT assay)
- Format: cell-based
- condition-summary: engineered HT-1080 cells, 20 hours; maximum percentage of Wee1 degradation; read-out: HiBiT Wee1: Dmax
Measured Dmax by item

Answered cases to consult:
C=CCn1c(=O)c2cnc(Nc3ccc(N4CC(N5CC6(CCN(c7ccc(NC8CCC(=O)NC8=O)cc7F)CC6)C5)C4)cc3)nc2n1-c1ccc2c(n1)[C@@](O)(CC)CC2 (some centres unmarked) [Compound 172]	50 to 75%
C=CCn1c(=O)c2cnc(Nc3ccc(N4CCN(CC5CN(c6ccc7c(c6)C(=O)N(C6CCC(=O)NC6=O)C7=O)C5)CC4)cc3)nc2n1-c1cccc(C(C)(C)O)n1 (centres unmarked) [Compound 10]	50 to 75%
C=CCn1c(=O)c2cnc(Nc3ccc(C4CCN(CC5CCN(c6ccc7c(N8CCC(=O)NC8=O)nn(C)c7c6)CC5)CC4)cc3)nc2n1-c1cccc(C(C)(C)O)n1 [Compound 104]	> 75%
C=CCn1c(=O)c2cnc(Nc3ccc(N4CCN(CC5CCN(c6ccc(NC7CCC(=O)NC7=O)cc6Cl)CC5)CC4)cc3)nc2n1-c1ccc2c(n1)[C@@](O)(CC)CC2 (some centres unmarked) [Compound 176]	> 75%

As a next step, examine the molecule that follows.
Query: Param item = C=CCn1c(=O)c2cnc(Nc3ccc(C4CCN(CC5CCN(c6ccc(NC7CCC(=O)NC7=O)cc6F)CC5)CC4)cc3)nc2n1-c1ccc2c(n1)[C@@](O)(CC)CC2 (some centres unmarked) [Compound 109] ; retrieve measured Dmax.
Result: 50 to 75%

====

Measured Dmax by item
- tgt: UniProtKB P30291
- test-description: Wee1 protein degradation assay (HiBiT assay)
- Format: cell-based
- condition-summary: engineered HT-1080 cells, 20 hours; maximum percentage of Wee1 degradation; read-out: HiBiT Wee1: Dmax

CC(C)n1c(=O)c2cnc(Nc3ccc(N4CCN(CC5CCN(c6ccc(NC7CCC(=O)NC7=O)cc6F)CC5)CC4)cc3)nc2n1-c1cccc(C(C)(C)F)n1 (centres unmarked) [Compound 199]	> 75%
C=CCn1c(=O)c2cnc(Nc3ccc(N4CCN(CC5CCN(c6ccc(NC7CCC(=O)NC7=O)cc6F)CC5)CC4)c(Cl)c3)nc2n1-c1ccc2c(n1)[C@@](O)(CC)CC2 (some centres unmarked) [Compound 167]	> 75%
C=CCn1c(=O)c2cnc(Nc3ccc(N4CCC(CN5CCC(c6ccc7c(c6)n(C)c(=O)n7C6CCC(=O)NC6=O)CC5)CC4)cc3)nc2n1-c1cccc(C(C)(C)O)n1 (centres unmarked) [Compound 52]	50 to 75%
C=CCn1c(=O)c2cnc(Nc3ccc(N4CCN(C5CC6(CCN(c7ccc(NC8CCC(=O)NC8=O)cc7F)CC6)C5)CC4)cc3)nc2n1-c1ccc2c(n1)[C@@](O)(CC)CC2 (some centres unmarked) [Compound 165]	> 75%

Query: Param item = C=CCn1c(=O)c2cnc(Nc3ccc(N4CCN(CC5CCN(c6ccc7c(c6)C(=O)N(C6CCC(=O)NC6=O)C7=O)CC5)CC4)cc3)nc2n1-c1cccc(C(C)(C)O)n1 (centres unmarked) [Compound 8] ; retrieve measured Dmax.
Result: 50 to 75%

====

- tgt: HiBiT tagged Wee1 (Homo sapiens, UniProt P30291)
- test-description: Wee1 protein degradation assay (HiBiT assay)
- Assay type: cell-based
- condition-summary: engineered HT-1080 cells, 20 hours; maximum percentage of Wee1 degradation; read-out: HiBiT Wee1: Dmax
Measured Dmax by item

Answered cases to consult:
C=CCn1c(=O)c2cnc(Nc3ccc(N4CCN(CC5CCN(c6ccc(NC7CCC(=O)NC7=O)cc6F)CC5)CC4)cc3)nc2n1-c1ccc2c(n1)[C@@](C)(O)CCC2 (single isomer, unassigned)	> 75%
C=CCn1c(=O)c2cnc(Nc3ccc(N4CCC(CN5CCN(c6cc7c(cc6F)c(N6CCC(=O)NC6=O)nn7C)CC5)CC4)cc3)nc2n1-c1ccc2c(n1)[C@@](O)(CC)CC2	> 75%
C=CCn1c(=O)c2cnc(Nc3ccc(N4CCC(CN5CCC(c6ccc(NC7CCC(=O)NC7=O)cc6C(F)(F)F)CC5)CC4)cc3)nc2n1-c1cccc(C(C)(C)O)n1 (stereo not shown)	> 75%
C=CCn1c(=O)c2cnc(Nc3ccc(N4CCC(CN5CCN(c6ccc(NC7CCC(=O)NC7=O)cc6F)CC5)CC4)c(C)c3)nc2n1-c1ccc2c(n1)[C@@](O)(CC)CC2 (stereo partly shown)	> 75%

Query: Param item = COc1ccc(C(=O)N2CCC(CN3CCC(c4ccc(Nc5ncc6c(=O)n(-c7c(Cl)cccc7Cl)c7nccn7c6n5)cc4)CC3)CC2)cc1N1CCC(=O)NC1=O ; retrieve measured Dmax.
Result: < 50%

Query: Then this compound: C=CCn1c(=O)c2cnc(Nc3ccc(N4CCN(C5CC6(C5)CN(c5ccc7c(N8CCC(=O)NC8=O)nn(C)c7c5)C6)CC4)cc3)nc2n1-c1ccc2c(n1)[C@@](O)(CC)CC2
Result: > 75%

Query: Then this compound: C=CCn1c(=O)c2cnc(Nc3ccc(N4CCN(CCCCc5cccc6c5CN(C5CCC(=O)NC5=O)C6=O)CC4)cc3)nc2n1-c1cccc(C(C)(C)O)n1 (stereo not shown)
Result: 50 to 75%

Query: Then this compound: C=CCn1c(=O)c2cnc(Nc3ccc(N4CCN(CC5CCN(c6c(F)cc(NC7CCC(=O)NC7=O)cc6F)CC5)CC4)cc3)nc2n1-c1ccc2c(n1)[C@@](O)(CC)CC2 (stereo partly shown)
Result: > 75%

Query: Then this compound: CN1CN(c2c(Cl)cccc2Cl)C(=O)c2cnc(Nc3ccc4c(c3)CN(CC3CN(c5ccc6c(c5)C(=O)N(C5CCC(=O)NC5=O)C6=O)C3)CC4)nc21 (stereo not shown)
Result: < 50%

Query: Then this compound: C=CCn1c(=O)c2cnc(Nc3ccc(N4CCN(CC5CCN(c6ccc7c(N8CCC(=O)NC8=O)nn(C)c7c6)CC5)[C@H](C)C4)cc3)nc2n1-c1ccc2c(n1)[C@@](O)(CC)CC2
Result: 50 to 75%

====

- tgt: HiBiT tagged Wee1 (Homo sapiens, UniProt P30291)
- test-description: Wee1 protein degradation assay (HiBiT assay)
- Format: cell-based
- condition-summary: engineered HT-1080 cells, 20 hours
reported-metric: DC50

Query: Param item = C=CCn1c(=O)c2cnc(Nc3ccc(N4CCC(CN5CCN(c6ccc(NC7CCC(=O)NC7=O)cc6Cl)CC5)CC4)cc3)nc2n1-c1cccc(C(C)(C)O)n1 (stereo not drawn) ; retrieve measured DC50.
Result: < 100 nM

Query: Then this compound: C=CCn1c(=O)c2cnc(Nc3ccc(N4CCC(N5CC[C@H](c6ccc(NC7CCC(=O)NC7=O)cc6F)C(F)(F)C5)CC4)cc3)nc2n1-c1ccc2c(n1)[C@@](O)(CC)CC2 (single isomer, unassigned)
Result: < 100 nM

Query: Then this compound: C=CCn1c(=O)c2cnc(Nc3ccc(N4CCC(N5CCN(c6cc7c(cc6F)C(=O)N(C6CCC(=O)NC6=O)C7=O)CC5)CC4)cc3)nc2n1-c1cccc(C(C)(C)O)n1 (stereo not drawn)
Result: 100 to 1000 nM

====

- tgt: HiBiT tagged Wee1 (Homo sapiens, UniProt P30291)
- test-description: Wee1 protein degradation assay (HiBiT assay)
- Format: cell-based
- condition-summary: engineered HT-1080 cells, 20 hours
Measured DC50 by item

Answered cases to consult:
O=C1CCC(N2C(=O)c3cccc(NCCCN4CCN(c5ccc(Nc6ncc7c(=O)n(-c8c(Cl)cccc8Cl)c8nccn8c7n6)cc5)CC4)c3C2=O)C(=O)N1 (stereo not drawn)	< 100 nM
C=CCn1c(=O)c2cnc(Nc3ccc(N4CCC(CN5CCN(c6ccc(NC7CCC(=O)NC7=O)cc6F)CC5)CC4)cc3)nc2n1-c1ccc2c(n1)[C@@](C)(O)CC2 (single isomer, unassigned)	< 100 nM

Query: Param item = C=CCn1c(=O)c2cnc(Nc3ccc(N4CCN(C(=O)CC5(O)CCN(c6ccc(NC7CCC(=O)NC7=O)cc6F)CC5)CC4)cc3)nc2n1-c1ccc2c(n1)[C@@](O)(CC)CC2 (stereo partly drawn) ; retrieve measured DC50.
Result: < 100 nM

Query: Then this molecule: C=CCn1c(=O)c2cnc(Nc3ccc(N4CCC(CN(C)C5CCN(c6ccc(NC7CCC(=O)NC7=O)cc6F)CC5)CC4)cc3)nc2n1-c1cccc(C(C)(C)O)n1 (stereo not drawn)
Result: < 100 nM

Query: Then this molecule: C=CCn1c(=O)c2cnc(Nc3ccc(N4CCN(CCOc5ccc6c(c5)C(=O)N(C5CCC(=O)NC5=O)C6=O)CC4)cc3)nc2n1-c1cccc(C(C)(C)O)n1 (stereo not drawn)
Result: < 100 nM

Query: Then this molecule: C=CCn1c(=O)c2cnc(Nc3ccc(N4CCN(C5CC6(CCN(c7ccc(NC8CCC(=O)NC8=O)cc7F)CC6)C5)CC4)cc3)nc2n1-c1ccc2c(n1)[C@@](O)(CC)CC2 (stereo partly drawn)
Result: < 100 nM
